B1: TPR t1 (parent)
chain: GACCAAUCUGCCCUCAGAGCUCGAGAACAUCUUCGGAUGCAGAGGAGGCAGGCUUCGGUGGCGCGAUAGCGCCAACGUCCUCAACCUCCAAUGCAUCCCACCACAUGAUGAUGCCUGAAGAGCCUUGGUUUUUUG

variants of: B1; test: polymerase ribozyme fitness, log enrichment relative to wild type (log ratio); higher = more active; in vitro selection for triplet polymerase activity
// Not met strictly below -4 in polymerase ribozyme fitness (log ratio); Met otherwise

Some solved cases for reference:
G19C C53G C62U C86U; Met
G36C G61U C70G C80U U81A C88U C104A C114G; Not met
A27G G52A C79U; Met
C12A A29U; Met
C64U C88U U106A U130A; Met
U78G G107U; Not met
A26G A74C C88A C115U; Met
U109A U129A; Not met
C8A C34G G110C U129G; Not met
A16U G63U; Not met

q: Does polymerase ribozyme fitness (log ratio) meet or surpass -4 for A2U C13G G60U C85A ?
a: Not met
